- Tested on: HS 578T breast
- protocol-notes: NCI tumour cell line growth inhibition, 48 h
observed-property: TGI

compound=C1=NCCNCCNCCN=Cc2ccc(cc2)OCc2cccc(n2)COc2ccc1cc2 observed_property=TGI result="> 100 µM"
compound="Nc1ccn(C2CC(F)C(CO)O2)c(=O)n1 (stereo unspecified)" observed_property=TGI result="> 100 µM"
compound=COc1ccccc1-n1c(=O)n(C)c(=O)n1C(C)(C)C observed_property=TGI result="> 100 µM"
compound=CCOc1ccc2c(-c3ccnc(Nc4cc(OC)cc(C(F)(F)F)c4)n3)cnn2n1 observed_property=TGI result="> 25 µM"
compound="CC1CC[C@@]2(OC1)O[C@H]1[C@H](O)[C@H]3[C@@H]4CC[C@H]5C[C@@H](OC6OC(CO)C(OC7OC(CO)C(O)C(OC8OCC(O)C(O)C8O)C7OC7OC(CO)C(O)C(O)C7OC7OC(CO)C(O)C(O)C7O)C(O)C6O)[C@H](O)C[C@]5(C)[C@H]4CC[C@]3(C)[C@H]1[C@@H]2C (stereo partly specified)" observed_property=TGI result="> 10 µM"
compound=O=C(O)CSc1ccccc1C(=O)O observed_property=TGI result="> 100 µM"
